Listed here are molecules together with their documented normalized growth.
PROCEDURE DETAILS: chemical genetic growth profiling, strain panel (AID 1159580);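 note: tested at 20 µM; growth read once vehicle control cultures reached saturation at 30 °C; 1 = growth at the plate median or of vehicle wells; lower values mean less growth of the strain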
MEASUREMENT PARAMETERS: S. cerevisiae deletion strains, growth OD, locus YLR262C, strain YPT6 (second series), stronger effect = lower value
The campaign covered roughly 5,500 compounds. About 2,000 (36%) were called active. Inconclusive results (about 18%) are left out. The list shows a part of the results.
The answer should be written as a number, with no unit following it.

// below: answered molecules
> print(dat)
                                   molecule  observed.measurement
1  NCC(CC(=O)O)c1ccc(Cl)cc1 (stereo not given)                 0.995
2  CN(C)CCOC(=O)C(c1ccccc1)C1(O)CCCC1 (stereo not given)                 0.995
3  C=C1C2CCC3(C)C(c4ccoc4)OC(=O)CC13OC1CC(OC(C)=O)C(C)(C)C(CC(=O)OC)C12C (stereo not given)                 0.972

Ask: Reported normalized growth, molecule C=C1[C@H]2CC[C@@]3(C)[C@H](c4ccoc4)OC(=O)C[C@]13O[C@H]1C[C@H](O)C(C)(C)[C@H](CC(=O)OC)[C@]12C : ____
Reply: 0.994

----------
PROCEDURE DETAILS: chemical genetic growth profiling, strain panel (AID 1159580);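 note: tested at 20 µM; growth read once vehicle control cultures reached saturation at 30 °C; 1 = growth at the plate median or of vehicle wells; lower values mean less growth of the strain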
MEASUREMENT PARAMETERS: S. cerevisiae deletion strains, growth OD, locus YDR052C, strain DBF4, stronger effect = lower value
About 2,000 (36%) of roughly 5,500 compounds were called active. Another 18% or so got no clear call; they are omitted. The list shows a part of the results.
Listed here are molecules together with their documented normalized growth.
The answer should be written as a number, with no unit following it.

// below: answered molecules
> print(dat)
                                   molecule  experimental.readout  observed.measurement
1  CS(=O)(=O)/C(C#N)=C/c1ccccc1OCc1c(Cl)cccc1Cl     normalized growth                 0.957
2        N#Cc1ccc(NC(=O)Nc2cccc3ccccc23)cc1     normalized growth                 0.995
3  O=[N+]([O-])c1ccc(-c2csc(Nc3ccncc3)n2)cc1     normalized growth                 0.992
4  O=C(CCn1c(=O)oc2ccccc21)Sc1ccc(C(F)(F)F)cc1     normalized growth                 0.961
5  CS(=O)(=O)c1sc(C(=O)Sc2ccc(Cl)cc2)c2c1C=CCC2     normalized growth                 0.903

Ask: Reported normalized growth, molecule COc1ccc(CC2CCC(=NOC(=O)c3ccc(C(C)(C)C)cc3)CC2)cc1 (stereo not given) : ____
Reply: 0.975

Ask: Reported normalized growth, molecule CSC(=NNc1ccccc1)NC(=O)c1c(Cl)cccc1Cl : ____
Reply: 0.975

Ask: Reported normalized growth, molecule Cc1ccc(N2C(=O)CSC2c2ccc(Cl)c(Cl)c2)cc1Cl (stereo not given) : ____
Reply: 0.98

Ask: Reported normalized growth, molecule S=C(NNc1ccccc1)Nc1cc(Cl)ccc1Cl : ____
Reply: 0.966

Ask: Reported normalized growth, molecule CC1C/C(=N/Nc2ccc(Br)cc2)c2cc(Cl)ccc2S1 (stereo not given) : ____
Reply: 0.703
